# Tested on: Escherichia coli TOP10
# assay name: shrunken log2 fold change of peptide-encoding DNA abundance (4.5 h post-induction vs induction); higher = less antimicrobial activity (less host growth inhibition)
# assay setup: time post-induction: 4.5 h; library: site-saturation at positions 5, 18, 19, 20
Reported values of shrunken log2 fold change for individual entries
# output: bare number, no unit

Some solved cases for reference:
{"chain sequence": "RRIRTRPPRLPRPRPRPQFAPRP", "result number": 0.0816}
{"chain sequence": "RRIRQRPPRLPRPRPRPDRWPRP", "result number": 0.37}
{"chain sequence": "RRIRDRPPRLPRPRPRPLIIPRP", "result number": -0.0486}

Here is the next item to consider.
Notebook: pull reported shrunken log2 fold change for Escherichia coli TOP10, entry RRIRVRPPRLPRPRPRPTQWPRP
0.12

----------
# Tested on: Escherichia coli TOP10
# assay name: shrunken log2 fold change of peptide-encoding DNA abundance (4.5 h post-induction vs induction); higher = less antimicrobial activity (less host growth inhibition)
# assay setup: time post-induction: 4.5 h; library: site-saturation at positions 5, 18, 19, 20
The class of a record is decided solely by its measured shrunken log2 fold change; consult range 1 = under -0.2, range 2 = from -0.2 up to 0.03, range 3 = 0.03 and over

Examples with answers:
{"chain sequence": "RRIRERPPRLPRPRPRPAAYPRP", "class label": "range 2"}
{"chain sequence": "RRIRLRPPRLPRPRPRPNREPRP", "class label": "range 2"}
{"chain sequence": "RRIRRRPPRLPRPRPRPSNVPRP", "class label": "range 3"}

Given RRIRPRPPRLPRPRPRPDNTPRP , name the class its shrunken log2 fold change places it in.
range 1

Which category does the recorded shrunken log2 fold change put RRIRHRPPRLPRPRPRPVQMPRP in?
range 3

# classify by shrunken log2 fold change band: RRIRCRPPRLPRPRPRPMARPRP
range 3

----------
# Tested on: Escherichia coli TOP10;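 note: peptides expressed intracellularly from a pBAD plasmid library in pooled LB shake-flask culture, induced with 0.3% L-arabinose, DNA abundance read by NGS, three biological replicates, DESeq2 with apeglm shrinkage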
# assay name: shrunken log2 fold change of peptide-encoding DNA abundance (4.5 h post-induction vs induction); higher = less antimicrobial activity (less host growth inhibition)
# assay setup: time post-induction: 4.5 h; library: site-saturation at positions 5, 18, 19, 20
readout kind: shrunken log2 fold change
Reply: number alone, nothing else.

Reference set (5 entries):
{"chain sequence": "RRIRRRPPRLPRPRPRPAIQPRP", "test system": "Escherichia coli TOP10", "shrunken log2 fold change": 0.561}
{"chain sequence": "RRIRRRPPRLPRPRPRPYMWPRP", "test system": "Escherichia coli TOP10", "shrunken log2 fold change": -0.374}
{"chain sequence": "RRIRIRPPRLPRPRPRPWYSPRP", "test system": "Escherichia coli TOP10", "shrunken log2 fold change": -0.821}
{"chain sequence": "RRIRLRPPRLPRPRPRPATEPRP", "test system": "Escherichia coli TOP10", "shrunken log2 fold change": 0.149}
{"chain sequence": "RRIRHRPPRLPRPRPRPWVCPRP", "test system": "Escherichia coli TOP10", "shrunken log2 fold change": -0.044}

Any idea what shrunken log2 fold change was measured for RRIRMRPPRLPRPRPRPITPPRP ?
0.0378

What does the data say about its shrunken log2 fold change? Entry: RRIRMRPPRLPRPRPRPLHCPRP
0.254

Which measured shrunken log2 fold change value corresponds to RRIRGRPPRLPRPRPRPAGMPRP ?
0.737

Returns the measured shrunken log2 fold change for the input sequence. Input: RRIRMRPPRLPRPRPRPLWFPRP
-0.147

I'd like to know its shrunken log2 fold change. The sequence in question is RRIRRRPPRLPRPRPRPAHRPRP
-0.059

Which shrunken log2 fold change is reported for this sequence? RRIRQRPPRLPRPRPRPYTKPRP
-0.111

May I ask what shrunken log2 fold change has been recorded for RRIRDRPPRLPRPRPRPDASPRP ?
-0.012

Request the reported shrunken log2 fold change associated with RRIRYRPPRLPRPRPRPDITPRP
-0.385

Value lookup for shrunken log2 fold change; key = RRIRMRPPRLPRPRPRPLRIPRP
1.06

Entry under review: RRIRIRPPRLPRPRPRPWYVPRP . Reported shrunken log2 fold change?
-0.247
